test system: hASCT2 (Homo sapiens, UniProt Q15758)
Construct: expressed in transfected cells; host or cells: HEK293 (ATCC CRL-11268), transient transfection
Sequence (Q15758 1-541): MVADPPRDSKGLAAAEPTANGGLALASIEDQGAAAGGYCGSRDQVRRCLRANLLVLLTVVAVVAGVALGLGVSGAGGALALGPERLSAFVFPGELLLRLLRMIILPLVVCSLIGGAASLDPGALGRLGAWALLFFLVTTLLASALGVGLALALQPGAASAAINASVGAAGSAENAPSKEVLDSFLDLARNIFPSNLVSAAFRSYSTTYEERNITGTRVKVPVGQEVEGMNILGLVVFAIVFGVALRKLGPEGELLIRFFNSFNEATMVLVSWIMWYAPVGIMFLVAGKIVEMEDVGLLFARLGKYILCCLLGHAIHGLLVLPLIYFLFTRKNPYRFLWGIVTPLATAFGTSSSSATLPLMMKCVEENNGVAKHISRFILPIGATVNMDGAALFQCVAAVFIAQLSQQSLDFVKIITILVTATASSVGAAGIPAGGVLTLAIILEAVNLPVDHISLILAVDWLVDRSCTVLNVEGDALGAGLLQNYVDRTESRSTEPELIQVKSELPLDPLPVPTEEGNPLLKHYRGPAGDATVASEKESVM
assay: Electrophysiology (whole-cell current recording) of transfected HEK293 cells, hASCT2
Type: cell-based
condition set: apparent Ki in the absence of substrate, HEK293, mean ± SD; read-out: Ki hASCT2
pKi: −log10 of the molar value.
observable: pKi

Here are 2 compounds together with their reported answers.
N[C@@H](CCOC(=O)c1ccc(-c2ccccc2)cc1)C(=O)O | 5.46
N[C@H](C(=O)O)[C@H](CO)OC(=O)c1ccc(-c2ccccc2)cc1 | 5.20

(1) O=C(Nc1ccc(C(=O)O[C@@H]2CN[C@H](C(=O)O)C2)cc1)c1ccc(C(F)(F)F)cc1
(2) O=C(O[C@@H]1CN[C@H](C(=O)O)C1)c1cccc(-c2ccccc2)c1
(3) O=C(O[C@@H]1CN[C@H](C(=O)O)C1)c1ccc(-c2ccc(C(F)(F)F)cc2)cc1
Q) Returns the items ordered by pKi, from maximum to minimum. I'd appreciate it if you listed the labels in the requested order.
A) 3, 1, 2
(3: 5.98, 1: 5.53, 2: 5.25)

====

test system: rASCT2 (Rattus norvegicus)
Construct: expressed in transfected cells; host or cells: HEK293 (ATCC CRL-11268), transient transfection
Sequence (D3ZJ25 whole entry): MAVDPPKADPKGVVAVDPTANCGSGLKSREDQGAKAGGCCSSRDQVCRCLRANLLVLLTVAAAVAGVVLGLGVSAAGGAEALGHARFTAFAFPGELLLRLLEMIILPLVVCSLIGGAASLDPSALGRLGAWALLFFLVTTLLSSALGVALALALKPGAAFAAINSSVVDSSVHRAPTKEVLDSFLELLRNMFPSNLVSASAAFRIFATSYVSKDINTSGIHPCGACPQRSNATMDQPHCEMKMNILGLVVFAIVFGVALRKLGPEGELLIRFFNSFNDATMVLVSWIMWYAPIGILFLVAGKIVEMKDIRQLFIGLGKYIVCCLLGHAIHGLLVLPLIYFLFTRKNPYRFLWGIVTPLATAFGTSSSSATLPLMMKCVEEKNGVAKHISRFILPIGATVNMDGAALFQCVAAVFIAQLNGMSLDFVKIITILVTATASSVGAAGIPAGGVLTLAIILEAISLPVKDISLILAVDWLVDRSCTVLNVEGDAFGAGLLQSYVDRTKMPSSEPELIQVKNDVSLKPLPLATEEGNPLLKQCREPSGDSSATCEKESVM
assay: Electrophysiology (whole-cell current recording) of transfected HEK293 cells, rASCT2
Assay type: cell-based
condition set: apparent Ki in the absence of substrate, HEK293, mean ± SD; read-out: Ki rASCT2
pKi: −log10 of the molar value.
observable: pKi

Here are 5 compounds together with their reported answers.
O=C(O[C@@H]1CN[C@H](C(=O)O)C1)c1ccc(Oc2ccccc2)cc1 | 5.43
N[C@@H](COC(=O)c1ccc(NC(=O)c2ccccc2)cc1)C(=O)O | 5.36
O=C(O[C@@H]1CN[C@H](C(=O)O)C1)c1ccc(-c2ccc(C(F)(F)F)cc2)cc1 | 6.57
Cc1ccccc1-c1ccc(C(=O)O[C@@H]2CN[C@H](C(=O)O)C2)cc1C | 6.06
N[C@H](C(=O)O)[C@@H](O)COC(=O)c1ccc(-c2ccccc2)cc1 | 5.44

(A) N[C@H](C(=O)O)[C@@H](CO)OC(=O)c1ccc(-c2ccccc2)cc1
(B) O=C(Nc1cccc(C(=O)N[C@@H]2CN[C@H](C(=O)O)C2)c1)c1ccccc1
(C) O=C(O)[C@@H]1C[C@H](OCc2ccc(-c3ccccc3)cc2)CN1
Q) Returns the items ordered by pKi, from maximum to minimum. I'd appreciate it if you listed the labels in the requested order.
A) C, A, B
(C: 5.95, A: 5.13, B: 3.82)

(P) N[C@H](C(=O)O)[C@H](CO)OC(=O)c1ccc(-c2ccccc2)cc1
(Q) O=C(Nc1cccc(CN[C@@H]2CN[C@H](C(=O)O)C2)c1)c1ccccc1
Q) // which entry reports the smaller pKi, P or Q ? The response must carry the label of the picked entry.
A) Q
